cytotoxicity at 70.5 h values by entry
Assay: Human HepG2 cell viability assay in 384 well format
Assay type: toxicity, cell-based
Design: dose 125 nL, time 70.5 hour; concentration not given beside the values
Conditions: HepG2 cells, read-out: Inhibition
Express your answer in %, writing the number without its unit.

These recorded examples may help you get a feel for the data.
COMPOUND	UOM	cytotoxicity at 70.5 h
O=C(O)[C@@H]1CN(Cc2nc3ncccn3n2)C[C@H]1c1cccc(F)c1	%	26.1
CC(C)c1noc(CCCC(=O)NCC2CCS(=O)(=O)C2)n1 (stereo not drawn)	%	22.3
CC(=O)N1CCC(Cc2cnc(-c3c(C)nn(C)c3C)cn2)CC1	%	-0.949

Req: Name the reported cytotoxicity at 70.5 h value associated with the compound Cn1ncc2c1NC(=O)CC2c1ccccc1Cl (stereo not drawn)
Resp: -5.68

###

Assay: Human HepG2 cell viability assay in 384 well format
Assay type: toxicity, cell-based
Set-up: dose 125 nL, time 70.5 hour; concentration not given beside the values
Settings: HepG2 cells, read-out: Inhibition
VALUE_TYPE: cytotoxicity at 70.5 h

COMPOUND	cytotoxicity at 70.5 h
CC(=O)N1CCc2nnc(C3CCCCN3CC3CC3)n2CC1 (stereo not given)	-13%

Req: Name the reported cytotoxicity at 70.5 h value associated with the compound c1ccc(COc2ccccc2CNC2CCc3ncnn3C2)cc1 (stereo not given)
Resp: -6.49%

Req: For O=C1N(Cc2ccc(F)c(F)c2)CCCC12CCN(C1CCSCC1)C2 (stereo not given) then?
Resp: 9.34%

Req: For COc1ncccc1NC(=O)C1CCS(=O)(=O)C1 (stereo not given) then?
Resp: -15.1%

Req: For `Cc1cc(CN2CCc3c(CNc4ncccn4)cncc3C2)oc1C` then?
Resp: -0.479%

Req: For Cc1cc(Br)c2c(c1)C1(CC(=O)Nc3c1cnn3C(C)C)C(=O)N2 (stereo not given) then?
Resp: -24.3%

Req: For COCCOc1ccc(NC(=O)C2CC(=O)N(C(C)C)C2)cn1 (stereo not given) then?
Resp: -4.64%

Req: For CCN1CCCC1CNC(=O)c1cc(COc2cccc(F)c2)[nH]n1 (stereo not given) then?
Resp: 0.339%

Req: For Cc1cc(C)n(CC2CCCN2C(=O)CCc2nccs2)n1 (stereo not given) then?
Resp: -7.22%

Req: For Cn1cc(C2CC(=O)NC23CCN(Cc2nccs2)CC3)cn1 (stereo not given) then?
Resp: -9.24%

###

Test: Human HepG2 cell viability assay in 384 well format
Assay type: toxicity, cell-based
Parameters: dose 125 nL, time 70.5 hour; concentration not given beside the values
Conditions: HepG2 cells, read-out: Inhibition
cytotoxicity at 70.5 h values by entry
Express your answer in %, writing the number without its unit.

These recorded examples may help you get a feel for the data.
COMPOUND	cytotoxicity at 70.5 h / %
Cc1nc(C2CCCN2C(=O)CCCn2cncn2)no1 (centres undefined)	-7.37
Cc1nc(CO[C@@H]2CN(Cc3ccc(F)cc3)[C@@H]3COC[C@@H]32)cs1	-7.17
O=c1[nH][nH]cc1-c1ccnc(NCCc2cccc(O)c2)n1	-7.19
O=C(CC1CCc2ccccc21)N1CCC(C(=O)O)(n2ccnc2)CC1 (centres undefined)	22.5
CCc1nc(CCNC(=O)NC2CCN(C(C)C)C2)sc1C (centres undefined)	-3.64

Alright, here's another compound for you.
Req: Name the reported cytotoxicity at 70.5 h value associated with the compound `CCOCC(=O)Nc1nccn1Cc1ccc(Br)cc1`
Resp: -5.58

###

Assay: Human HepG2 cell viability assay in 384 well format
Type: toxicity, cell-based
Set-up: dose 125 nL, time 70.5 hour; concentration not given beside the values
Details: HepG2 cells, read-out: Inhibition
cytotoxicity at 70.5 h values by entry
Express your answer in %, writing the number without its unit.

COMPOUND	cytotoxicity at 70.5 h / %
CCCc1noc(CN(C)Cc2ccc3c(c2)OCO3)n1	17.8
CC(C)N(C)Cc1nnn2c1CN(Cc1cccnc1)CCC2	-101
Cc1nsc(C(=O)NCCc2cccs2)n1	-5.79

Alright, here's another compound for you.
Req: Name the reported cytotoxicity at 70.5 h value associated with the compound `Cn1cnnc1S(=O)(=O)C1CCN(S(=O)(=O)C2CC2)CC1`
Resp: -1.29

###

Assay: Human HepG2 cell viability assay in 384 well format
Format: toxicity, cell-based
Design: dose 125 nL, time 70.5 hour; concentration not given beside the values
Settings: HepG2 cells, read-out: Inhibition
cytotoxicity at 70.5 h values by entry

These recorded examples may help you get a feel for the data.
COMPOUND	VALUE_TYPE	DATA_VALUE
Cc1ccc(CN2CCC(c3nnc(CN4CCCCC4)n3C)CC2)o1	cytotoxicity at 70.5 h	-5.72%
CC(=O)c1ccc(N2CCC3(CCC(=O)N(C4CC4)C3)CC2)nc1	cytotoxicity at 70.5 h	-1.87%
Cn1nccc1C(=O)N1CCCC2(CCN(c3ccsc3)C2=O)C1 (configuration not stated)	cytotoxicity at 70.5 h	10.3%
COCCn1c(=O)n(Cc2cccc(F)c2F)c2cc(C(=O)O)ccc21	cytotoxicity at 70.5 h	18.8%
NC(=O)c1cncc(-n2ccc(-c3cnccn3)n2)c1	cytotoxicity at 70.5 h	-8.7%
O=C(NCCN1CCOCC1)C1=NOC2(CCN(Cc3nccs3)C2)C1 (configuration not stated)	cytotoxicity at 70.5 h	-17.4%
CO[C@H]1CN(C(=O)OC(C)(C)C)CC1NCc1ccco1 (some centres not stated)	cytotoxicity at 70.5 h	-24.9%
O=C(c1ccc[nH]1)N1CCCn2c(nnc2Cn2cccn2)C1	cytotoxicity at 70.5 h	-9.08%

Req: Name the reported cytotoxicity at 70.5 h value associated with the compound `CS(=O)(=O)N[C@@H]1CCO[C@]2(CCN(C(=O)c3cscn3)C2)C1`
Resp: -7.64%

Req: For CC(C)S(=O)(=O)N1CCOC(CCc2ccccc2)C1 (configuration not stated) then?
Resp: -8.39%

Req: For CC(C)(C)NC(=O)N1CCN2C(=O)OCC2C1 (configuration not stated) then?
Resp: -3.52%

Req: For Cc1noc(C)c1CN(C)C(=O)CN1CC(c2ccccc2)CC1=O (configuration not stated) then?
Resp: -6.3%

Req: For `CCc1ncc(C(=O)NCCN2CCNC2=O)cn1` then?
Resp: -5.68%

Req: For CCN1CCC2(CC1)CC(CC(=O)N(C)C)c1ccc(F)cc12 (configuration not stated) then?
Resp: 33.5%

Req: For `Cc1cc(CN2CCc3nc(N4CCOCC4)nc(O)c3CC2)c(C)s1` then?
Resp: -0.651%

Req: For O=C(O)c1cn(CC2CCCN(c3nccc4occc34)C2)nn1 (configuration not stated) then?
Resp: -14.6%

Req: For `CCOCCN1CCN(c2ccc(CN(C)C)cn2)CC1` then?
Resp: -5.47%

###

Test: Human HepG2 cell viability assay in 384 well format
Type: toxicity, cell-based
Set-up: dose 125 nL, time 70.5 hour; concentration not given beside the values
Details: HepG2 cells, read-out: Inhibition
cytotoxicity at 70.5 h values by entry
Express your answer in %, writing the number without its unit.

MOLECULE	cytotoxicity at 70.5 h (%)
CC(=O)c1ccc(NC(=O)NCc2cccc(N(C)C)n2)cc1C	-1.51

Req: Name the reported cytotoxicity at 70.5 h value associated with the molecule Cc1cc(NC(=O)N2CCOC(C(N)=O)C2)ccc1Br (stereo not given)
Resp: -12.3

Req: For Cc1nc(CN(C)C2CCN(Cc3nc(C4CC4)no3)C2)no1 (stereo not given) then?
Resp: -1.35

Req: For CC(c1ccccc1)N(C)C(=O)CN1CCN(c2cnccn2)CC1 (stereo not given) then?
Resp: -16.2

Req: For COc1ccc(CCNC(=O)C2CCCOC2)c(Cl)c1 (stereo not given) then?
Resp: 3.61

Req: For `CN(CCCO)C(=O)c1ccc2c(c1)nc(N1CC[C@H](O)C1)n2C` then?
Resp: -7.06

Req: For O=C(NCC(=O)N1CCCC1Cc1cccc(F)c1)C1CCCC1 (stereo not given) then?
Resp: -1.38

###

Assay: Human HepG2 cell viability assay in 384 well format
Format: toxicity, cell-based
Parameters: dose 125 nL, time 70.5 hour; concentration not given beside the values
Conditions: HepG2 cells, read-out: Inhibition
VALUE_TYPE: cytotoxicity at 70.5 h (%)
Express your answer in %, writing the number without its unit.

These recorded examples may help you get a feel for the data.
MOLECULE	cytotoxicity at 70.5 h (%)
COc1ccc(-c2cccc(-c3ccn(CCCN(C)C)n3)c2)nn1	-13.7
O=C1Nc2ccccc2CN(CC2CCCC2)C12CCNC2 (configuration not stated)	-2.12
CC(C)c1[nH]c2ncccc2c1CN1CCOCC1	4.28

Req: Name the reported cytotoxicity at 70.5 h value associated with the molecule O=C(c1ccccc1)N1CCOC2CNCC[C@H]21 (some centres not stated)
Resp: -7.04

Req: For `Cc1ccc(N2CCO[C@H]3CN(Cc4cccnc4)C[C@H]32)nn1` then?
Resp: 12.6

Req: For `CN(Cc1noc(C(C)(C)C)n1)CC1CCN(CCO)CC1` then?
Resp: -3.04

Req: For O=C1CC(c2cccs2)c2sc(C(=O)O)c(-c3ccccc3)c2N1 (configuration not stated) then?
Resp: -9.97
